Items are presented alongside their recorded TOP blocking (%).
# experimental system: T1, mFc tagged human LAG3 ECD recombinant protein (human, UniProt P18627 23-450)
# T1 construct: extracellular domain; purchased from Biointron; not shown: mouse IgG Fc (mFc) tag
# T1 sequence (looked up): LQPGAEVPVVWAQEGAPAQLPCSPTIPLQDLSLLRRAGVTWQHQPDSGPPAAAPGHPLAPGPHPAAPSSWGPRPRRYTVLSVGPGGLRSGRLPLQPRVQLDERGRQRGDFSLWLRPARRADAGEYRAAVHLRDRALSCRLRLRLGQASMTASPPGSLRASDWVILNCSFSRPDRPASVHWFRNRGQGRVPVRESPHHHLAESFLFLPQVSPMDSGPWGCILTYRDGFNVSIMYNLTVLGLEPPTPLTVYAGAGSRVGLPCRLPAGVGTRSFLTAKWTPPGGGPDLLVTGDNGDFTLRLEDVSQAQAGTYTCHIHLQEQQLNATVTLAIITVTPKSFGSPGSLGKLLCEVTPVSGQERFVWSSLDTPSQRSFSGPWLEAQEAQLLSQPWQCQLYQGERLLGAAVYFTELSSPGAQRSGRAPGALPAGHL
# test protocol: competitive FACS: mFc-LAG3 ECD binding to Raji cells (MHC II)
Provide only the numeric value, understood in %.

Previously resolved entries follow.
binder	numeric readout
048c (antibody, human IgG4, V domains shown, human IgG4 S228P / kappa chimeric antibody; also called chimeric antibody 048; not shown: human kappa light chain constant region (pcDNA3.4-hIgGk vector)) VH: EFQVQQSGPELVKPGASVKISCKASGYSFSDYNMNWLKQSTGKSLEWIGLVDPIYGTIRYNQKFKGKATLTVDQSSSTAYMQLNSLTSEDSAVYYCALITTSVRYFDYWGQGTTLTVSS VL: DVLMTQTPLSLPVSLGDQASISCRSSQNIVHTDGNTYLEWYLQKPGQSPKLLIYKVSNRFSGVPDRFSGSGSGTDFTLKISRVEAEDLGVYYCFQGSHVPPTFGGGTKLEIK	64.6
021c (antibody, human IgG4, V domains shown, human IgG4 S228P / kappa chimeric antibody; also called chimeric antibody 021; not shown: human kappa light chain constant region (pcDNA3.4-hIgGk vector)) VH: DIQLQESGPGLVKPSQSLSLTCSVTGYSITSGYYWNWIRQFPGNKLEWMGDISYDGGNNYNPSLKNRISITRDTSKNQFFLKLNSVTTEDTATYYCARDITLTGAMDYWGQGTSVTVSS VL: DIVLTQSPASLAVSLGQRATISCRASESVDNYGISFMHWYQQRPGQPPKLLIYRASNLESGIPARFSGSGSRTDFTLTINPVETDDVATYYCQQSNKDPYTFGGGTKLEIK	99.9
024c (antibody, human IgG4, V domains shown, human IgG4 S228P / kappa chimeric antibody; also called chimeric antibody 024; not shown: human kappa light chain constant region (pcDNA3.4-hIgGk vector)) VH: EVQLQQSGPELVKPGASVKISCKASGYTFTDYYMNWVKQSHGKRLEWIGDIDPNNGGTSYNQKFKGKATLTVDKSSSSAYMDLRSLTSEDSAVYYCARAGSYYYGSSYVEYFDVWGTGTTVTVSS VL: DIQMTQSPASLSASVGETVTITCRASGNIHNYLAWYQQKQGASPQLLVYNAKTLADGVPSRFSGSGSGTEFSLKINSLQPEDFGNYYCQHFWNTPYTFGGGTKLEIK	96.9

As a next step, examine the binder that follows.
// query Which TOP blocking (%) value is on record for 035c (antibody, human IgG4, V domains shown, human IgG4 S228P / kappa chimeric antibody; also called chimeric antibody 035; not shown: human kappa light chain constant region (pcDNA3.4-hIgGk vector)) VH: QVQLQQSGAELARPGASVKLSCKASGYSFTSYGINWVKQRTGQGLEWIGEIYPRSGNTYYNEKFKDKATLTADKSSSTAYMELRSLTSEDSAVYFCARGGTYDGYYYAMDFWGQGTSVTVSS VL: DIVLTQSPASLAVSLGQRATISCRASESVDNFGSSFLHWYQQKPGQAPKLLIYRASNLESGIPARFSGSGSRTDFTLTINPVETDDVATYYCQQVNKDPRTFGGGTKLEIK ?
// result 95.9
